- test_summary: Phase I clinical trial: plasma concentrations after weekly intravenous infusion (pharmacokinetics)
- Format: in vivo, human
- condition_notes: human, plasma, iv, 3.9 mg/m^2, Day 15; 3.9 mg/m^2 i.v.; infusion 2 hr; 2 hr after infusion; LLOQ 1 ng/mL
Where a name gives a salt, the structure may show the parent alone.
reported_property: concentration at 2 h (ng/mL)

| compound | measured_value |
| --- | --- |
| COc1ccc(N(C)c2nc(C)nc3ccccc23)cc1 [hydrochloride] | 10.4 |

###

- test_summary: Phase I clinical trial: plasma concentrations after weekly intravenous infusion (pharmacokinetics)
- Format: in vivo, human
- condition_notes: human, plasma, iv, 2.1 mg/m^2, Day 1; 2.1 mg/m^2 i.v.; infusion 1 hr; 4 hr after infusion; LLOQ 1 ng/mL
Counter-ions that a name gives are not always drawn.
reported_property: concentration at 4 h after end of infusion (ng/mL)

| molecule | quantity_unit | measured_value |
| --- | --- | --- |
| COc1ccc(N(C)c2nc(C)nc3ccccc23)cc1 [hydrochloride] | ng/mL | 2.64 |
